Assay Comment: Solubility
Type: physicochemical
Protocol Conditions: in water

Compound	Solubility
C=C1CC[C@H]2C(C)(C)CCC[C@]2(C)[C@H]1COC(C(=O)OC)C(CC(=O)O)C(=O)O[C@H]1CC(C)(C)[C@@H]2CC=C(C=O)[C@H](C=O)[C@@]2(C)C1 (stereo partly shown) [TG101]	slightly soluble
C=C1CC[C@H]2C(C)(C)CCC[C@]2(C)[C@H]1COC(C(=O)OC)C(CC(=O)O)C(=O)O[C@H]1CC(C)(C)[C@@H]2CC=C3COC(O)[C@@H]3[C@@]2(C)C1 (stereo partly shown) [TG103]	slightly soluble
C=C1CC[C@H]2C(C)(C)CCC[C@]2(C)[C@H]1COC(C(=O)O[C@H]1CC(C)(C)[C@@H]2CC=C3COC(O)[C@@H]3[C@@]2(C)C1)C(CC(=O)O)C(=O)OC (stereo partly shown) [TG104]	slightly soluble
C=C1CC[C@H]2C(C)(C)CCC[C@]2(C)[C@H]1COC(C(=O)O[C@H]1CC(C)(C)[C@@H]2CC=C(C=O)[C@H](C=O)[C@@]2(C)C1)C(CC(=O)O)C(=O)OC (stereo partly shown) [TG102]	slightly soluble
